SUBJECT_OF_TEST: PI3Kδ (p110δ/p85α) (Homo sapiens (Human))
Sequence (O00329 whole entry): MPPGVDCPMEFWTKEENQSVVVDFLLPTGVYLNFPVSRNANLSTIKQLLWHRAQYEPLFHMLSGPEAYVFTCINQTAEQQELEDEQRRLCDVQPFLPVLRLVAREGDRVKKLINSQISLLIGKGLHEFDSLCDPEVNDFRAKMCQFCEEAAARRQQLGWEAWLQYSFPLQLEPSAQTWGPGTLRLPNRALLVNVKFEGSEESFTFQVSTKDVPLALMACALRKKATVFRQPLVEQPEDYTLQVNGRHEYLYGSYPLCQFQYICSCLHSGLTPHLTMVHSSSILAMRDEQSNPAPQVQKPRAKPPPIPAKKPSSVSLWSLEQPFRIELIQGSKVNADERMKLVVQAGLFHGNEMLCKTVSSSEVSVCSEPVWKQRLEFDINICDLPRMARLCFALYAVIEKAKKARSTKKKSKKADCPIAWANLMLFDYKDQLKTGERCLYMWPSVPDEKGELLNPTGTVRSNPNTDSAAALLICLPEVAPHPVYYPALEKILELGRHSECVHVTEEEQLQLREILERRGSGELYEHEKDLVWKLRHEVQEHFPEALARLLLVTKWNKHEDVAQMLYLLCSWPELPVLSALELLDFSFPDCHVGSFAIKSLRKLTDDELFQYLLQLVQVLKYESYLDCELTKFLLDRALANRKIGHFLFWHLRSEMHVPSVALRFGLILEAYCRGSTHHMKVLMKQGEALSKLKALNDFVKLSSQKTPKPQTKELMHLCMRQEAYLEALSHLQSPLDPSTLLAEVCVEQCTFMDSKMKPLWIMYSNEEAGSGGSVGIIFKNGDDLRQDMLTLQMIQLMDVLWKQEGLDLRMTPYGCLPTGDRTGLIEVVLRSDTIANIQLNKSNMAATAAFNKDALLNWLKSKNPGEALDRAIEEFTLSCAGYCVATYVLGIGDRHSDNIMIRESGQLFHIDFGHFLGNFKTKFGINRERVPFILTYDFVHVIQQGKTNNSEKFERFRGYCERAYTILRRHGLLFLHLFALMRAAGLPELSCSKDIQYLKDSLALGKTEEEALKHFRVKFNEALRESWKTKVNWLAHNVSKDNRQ
Sequence (P27986 whole entry partner): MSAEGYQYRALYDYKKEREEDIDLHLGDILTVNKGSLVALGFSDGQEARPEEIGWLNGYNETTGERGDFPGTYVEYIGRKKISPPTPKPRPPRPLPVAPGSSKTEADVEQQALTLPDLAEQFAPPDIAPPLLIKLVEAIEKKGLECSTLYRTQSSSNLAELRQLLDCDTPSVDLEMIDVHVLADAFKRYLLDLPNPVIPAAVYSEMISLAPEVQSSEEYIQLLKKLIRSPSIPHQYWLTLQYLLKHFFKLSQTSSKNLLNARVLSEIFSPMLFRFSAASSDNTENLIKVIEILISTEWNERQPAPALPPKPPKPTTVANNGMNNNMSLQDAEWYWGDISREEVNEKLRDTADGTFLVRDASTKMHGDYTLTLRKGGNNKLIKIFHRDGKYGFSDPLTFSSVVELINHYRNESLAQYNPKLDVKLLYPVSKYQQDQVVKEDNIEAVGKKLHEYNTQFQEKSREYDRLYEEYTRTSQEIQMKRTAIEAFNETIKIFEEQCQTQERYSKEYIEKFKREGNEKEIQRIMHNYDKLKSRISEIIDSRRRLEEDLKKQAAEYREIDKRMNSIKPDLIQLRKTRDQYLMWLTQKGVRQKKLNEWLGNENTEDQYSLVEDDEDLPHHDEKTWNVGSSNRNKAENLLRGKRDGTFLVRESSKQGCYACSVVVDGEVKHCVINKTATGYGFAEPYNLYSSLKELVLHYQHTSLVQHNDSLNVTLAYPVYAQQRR
METHOD_DESCRIPTION: PI3Kδ Scintillation Proximity Assay (Example A3)
EXPERIMENTAL_CONDITIONS: 20 μM ATP, 20 μM PIP2, 4 nM PI3Kδ, read-out: PI3Kδ SPA IC50
pIC50: −log10 of the molar value.
OBSERVABLE: pIC50

Some solved entries appear below for comparison.
1) COc1c(C(C)n2nc(C)c3c(N)ncnc32)cc(Cl)c(C)c1C1CN(C(CO)C(F)(F)F)C1 (stereo not shown)	> 8.00
2) CCOc1c(C(C)n2nc(C)c3c(N)ncnc32)cc(Cl)c(C)c1C1CN(C[C@H](C)O)C1 (stereo partly shown) [Example 96, bis(trifluoroacetate)]	> 8.00
3) CCOc1c(C(C)n2nc(C)c3c(N)ncnc32)cc(Cl)c(C#N)c1C1CN(C(=O)C(C)(C)O)C1 (single isomer, unassigned)	> 8.00

Please give pIC50, item by item, for the list that follows.
1. COc1c(C(C)n2nc(C)c3c(N)ncnc32)cc(Cl)c(C)c1-c1cnn(CCN(C)C)c1 (single isomer, unassigned)
2. CCOc1c(C(C)n2nc(C)c3c(N)ncnc32)cc(Cl)c(F)c1C1CN(CC(C)(C)O)C1 (racemic)
3. COCCN1CC(c2c(C)c(Cl)cc(C(C)n3nc(C)c4c(N)ncnc43)c2OC)C1 (racemic)
4. COc1c(C(C)n2nc(C)c3c(N)ncnc32)cc(Cl)c(C)c1C1CN([C@H](C)C(=O)N(C)C)C1 (stereo partly shown)
5. COC(=O)N1CC(c2c(C#N)c(Cl)cc(C(C)n3nc(C)c4c(N)ncnc43)c2OC)C1 (single isomer, unassigned)
6. COc1c(C(C)n2nc(C)c3c(N)ncnc32)cc(Cl)c(C)c1C1CN(C2(CC#N)CCC2)C1 (single isomer, unassigned)
7. COc1c(C(C)n2nc(C)c3c(N)ncnc32)cc(Cl)c(C)c1C1CN(CC(F)(F)F)C1 (single isomer, unassigned)

Result:
1. > 8.00
2. > 8.00
3. > 8.00
4. > 8.00
5. > 8.00
6. > 8.00
7. > 8.00

Quick batch: pIC50 for everything below.
1. COc1c(C(C)n2nc(C)c3c(N)ncnc32)cc(Cl)c(C)c1C1CN(C)C1 (racemic)
2. COc1c(C(C)n2nc(C)c3c(N)ncnc32)cc(Cl)c(C#N)c1C1CN(C(=O)N(C)C)C1 (single isomer, unassigned)
3. CCOc1c(C(C)n2nc(C)c3c(N)ncnc32)cc(Cl)c(C)c1-c1cnn(CC(N)=O)c1 (single isomer, unassigned)

Result:
> 8.00
> 8.00
> 8.00

---

SUBJECT_OF_TEST: PI3Kδ (p110δ/p85α) (Homo sapiens (Human))
METHOD_DESCRIPTION: PI3Kδ Scintillation Proximity Assay (Example A3)
EXPERIMENTAL_CONDITIONS: 20 μM ATP, 20 μM PIP2, 4 nM PI3Kδ, read-out: PI3Kδ SPA IC50
pIC50: −log10 of the molar value. Counter-ions that a name gives are not always drawn.
OBSERVABLE: pIC50

Dear colleague, could you please provide pIC50 for the compounds listed below?
1. COc1c(C(C)n2nc(C)c3c(N)ncnc32)cc(Cl)c(C)c1-c1ccc(C(=O)NCCO)nc1 (stereo not shown) [Example 23, trifluoroacetate]
2. COc1c(C(C)n2nc(C)c3c(N)ncnc32)cc(Cl)c(C)c1C1CCN(C)CC1 (racemic)
3. CCN1CC(c2c(Cl)c(Cl)cc(C(C)n3nc(C)c4c(N)ncnc43)c2OC)C1 (stereo not drawn) [298 (1st peak)]
4. COc1c(C(C)n2nc(C)c3c(N)ncnc32)cc(Cl)c(C)c1C1CN(CC2CC2)C1 (racemic) [Example 4, bis(trifluoroacetate)]
5. COc1c(C(C)n2nc(C)c3c(N)ncnc32)cc(Cl)c(C)c1-c1cncc(C(=O)N(C)C)c1 (single isomer, unassigned)
6. COc1c([C@H](C)n2nc(C)c3c(N)ncnc32)cc(Cl)c(C#N)c1C1CN(C[C@@H](C)O)C1
7. CCOc1c(C(C)n2nc(C)c3c(N)ncnc32)cc(Cl)c(F)c1C1CNC(=O)O1 (single isomer, unassigned) [Example 356]

Result:
1. > 8.00
2. > 8.00
3. > 8.00
4. > 8.00
5. > 8.00
6. > 8.00
7. 6.70 to 7.30

---

SUBJECT_OF_TEST: PI3Kδ (p110δ/p85α) (Homo sapiens (Human))
METHOD_DESCRIPTION: PI3Kδ Scintillation Proximity Assay (Example A3)
EXPERIMENTAL_CONDITIONS: 20 μM ATP, 20 μM PIP2, 4 nM PI3Kδ, read-out: PI3Kδ SPA IC50
pIC50: −log10 of the molar value. Where a name gives a salt, the structure may show the parent alone.
Provide the reported pIC50 of each item.

Some solved entries appear below for comparison.
1. CCOc1c(C(C)n2nc(C)c3c(N)ncnc32)cc(Cl)c(F)c1C1CNC(=O)O1 (single isomer, unassigned) [Example 355]	6.70 to 7.30
2. CCC(=O)N1CC(c2c(C)c(Cl)cc(C(C)n3nc(C)c4c(N)ncnc43)c2OC)C1 (stereo not drawn) [Example 3, trifluoroacetate]	> 8.00
3. COc1c(C(C)n2nc(C)c3c(N)ncnc32)cc(Cl)c(C)c1C1CN(CC#N)C1 (single isomer, unassigned) [Example 105]	> 8.00

For each of the items listed, what is its pIC50?
1. Cc1c(Cl)cc(C(C)n2nc(C)c3c(N)ncnc32)c(OCC(F)F)c1-c1ccc(C(=O)N(C)C)nc1 (single isomer, unassigned) [Example 189, bis(2,2,2-trifluoroacetate)]
2. COc1c(C(C)n2nc(C)c3c(N)ncnc32)cc(Cl)c(F)c1C1CN(C[C@H](C)O)C1 (stereo partly drawn) [68 (1st peak)]
3. CCOc1c(C(C)n2nc(C)c3c(N)ncnc32)cc(Cl)c(F)c1C1CN(CC(F)(F)F)C1 (racemic) [Example 141]

Result:
["> 8.00", "> 8.00", "> 8.00"]
